TARGET: human Glucose-dependent Insulinotropic Polypeptide Receptor (hGIPR) (Homo sapiens, UniProt P48546)
Sequence (P48546 22-466): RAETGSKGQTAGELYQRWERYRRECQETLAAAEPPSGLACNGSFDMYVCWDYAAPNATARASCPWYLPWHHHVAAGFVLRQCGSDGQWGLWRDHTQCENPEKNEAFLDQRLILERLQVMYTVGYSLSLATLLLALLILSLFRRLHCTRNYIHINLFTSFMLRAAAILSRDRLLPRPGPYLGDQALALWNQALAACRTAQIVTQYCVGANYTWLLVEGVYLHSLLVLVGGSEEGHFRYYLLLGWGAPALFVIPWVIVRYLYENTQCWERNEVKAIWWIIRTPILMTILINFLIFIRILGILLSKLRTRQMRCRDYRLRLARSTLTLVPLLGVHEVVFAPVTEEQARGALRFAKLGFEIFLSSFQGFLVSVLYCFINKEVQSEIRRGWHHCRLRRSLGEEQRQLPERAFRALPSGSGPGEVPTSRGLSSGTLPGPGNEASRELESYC
TEST: Functional in vitro GIPR antagonist potency assay (cAMP HTRF, CHO-K1 cells stably expressing hGIPR, hGIP stimulation at about EC80)
CONDITION_DETAILS: geometric mean, hGIP at estimated EC80, examples marked ^2: overall geometric mean of multiple forms (including salts) tested
pIC50: −log10 of the molar value.
MEASURED_ATTRIBUTE: pIC50

Consider the following illustrative entries.
1. CC(C)c1ccc(NC(=O)N2C[C@@H]3C[C@@H]3[C@@H]2C(=O)Nc2ccc(-c3cccc(C(=O)O)c3)cc2)cc1
6.96
2. O=C(O)c1ccc(-c2ccc(NC(=O)[C@H]3CCCN3C(=O)Nc3ccc(Cl)cc3)cc2)cc1
7.92
3. CC(C)c1ccc(NC(=O)N2C[C@@H]3C[C@@H]3[C@@H]2C(=O)Nc2ccc(-c3ccc(C(=O)O)cc3)cc2)cc1
8.06
4. O=C(O)c1ccc(-c2ccc(NC(=O)[C@H]3CCCN3C(=O)NCc3ccc(C4CC4)cc3)cc2)cc1
8.11
5. O=C(O)c1ccc(-c2ccc(NC(=O)[C@H]3CCCN3C(=O)Nc3cc(F)c(C(F)(F)F)c(F)c3)cc2)cc1
8.03

[I] Cc1cc(NC(=O)N2CCC[C@@H]2C(=O)Nc2ccc(-c3ccc(C(=O)O)cc3)cn2)ccc1C(F)(F)F
[II] CC(C)c1ccc(NC(=O)N2CCC[C@@H]2C(=O)Nc2ccc(-c3ccc(C(=O)O)cc3C(C)C)cc2)cc1
Asked: Quick check, higher pIC50 between I and II ? // output: label of the selected item
Given back: II

----------
TARGET: human Glucose-dependent Insulinotropic Polypeptide Receptor (hGIPR) (Homo sapiens)
TEST: Functional in vitro GIPR antagonist potency assay (cAMP HTRF, CHO-K1 cells stably expressing hGIPR, hGIP stimulation at about EC80)
CONDITION_DETAILS: geometric mean, hGIP at estimated EC80, examples marked ^2: overall geometric mean of multiple forms (including salts) tested
MEASURED_ATTRIBUTE: IC50 (nM)

Consider the following illustrative entries.
1. O=C(O)c1ccc(-c2ccc(NC(=O)[C@H]3CCCN3C(=O)NCc3ccc(C(F)(F)F)cc3F)cc2)cc1
140
2. Cc1cc(-c2ccc(NC(=O)[C@H]3CCCN3C(=O)Nc3ccc(C(C)C)cc3)cc2)ccc1C(=O)O
7.3
3. Cc1cc(NC(=O)N2CCC[C@@H]2C(=O)Nc2ccc(-c3ccc(C(=O)O)nc3)cn2)ccc1C(C)C
91
4. Cc1cc(NC(=O)N2CCC[C@@H]2C(=O)Nc2ccc(-c3ccc(C(=O)O)cc3)nc2)ncc1C(C)C
69
5. CC(C)c1ccc(CNC(=O)N2CCC[C@@H]2C(=O)Nc2ccc(-c3cccc(C(=O)O)c3)cn2)cc1
79

[I] O=C(O)c1ccc(-c2ccc(NC(=O)[C@H]3CCCN3C(=O)Nc3ccc(C(F)(F)F)cc3)cc2)cc1
[II] COc1cc(C(=O)O)ccc1-c1ccc(NC(=O)[C@H]2CCCN2C(=O)Nc2ccc(C(C)C)cc2)cc1
Asked: Quick check, higher IC50 between I and II ? // output: label of the selected item
Given back: II
(II: 17 nM, I: 3.7 nM)

----------
TARGET: human Glucose-dependent Insulinotropic Polypeptide Receptor (hGIPR) (Homo sapiens, UniProt P48546)
TEST: Functional in vitro GIPR antagonist potency assay (cAMP HTRF, CHO-K1 cells stably expressing hGIPR, hGIP stimulation at about EC80)
CONDITION_DETAILS: geometric mean, hGIP at estimated EC80, examples marked ^2: overall geometric mean of multiple forms (including salts) tested
pIC50: −log10 of the molar value.
MEASURED_ATTRIBUTE: pIC50

Consider the following illustrative entries.
1) O=C(O)c1ccc(-c2cnc(NC(=O)[C@H]3CCCN3C(=O)Nc3ccc(C(F)(F)F)cc3)c(F)c2)cc1
6.96
2) COc1cc(-c2ccc(NC(=O)[C@H]3CCCN3C(=O)Nc3ccc(C(C)C)cc3)cc2)ccc1C(=O)O
7.96

[1] Cc1cc(C(=O)O)ccc1-c1ccc(NC(=O)[C@H]2CCCN2C(=O)Nc2ccc(C(F)(F)F)cc2)nc1
[2] Cc1cc(C(=O)O)cc(C)c1-c1ccc(NC(=O)[C@H]2CCCN2C(=O)Nc2ccc(C(C)C)cc2)cc1
Asked: Quick check, higher pIC50 between 1 and 2 ? // output: label of the selected item
Given back: 2
(2: 7.85, 1: 7.51)

----------
TARGET: human Glucose-dependent Insulinotropic Polypeptide Receptor (hGIPR) (Homo sapiens, UniProt P48546)
TEST: Functional in vitro GIPR antagonist potency assay (cAMP HTRF, CHO-K1 cells stably expressing hGIPR, hGIP stimulation at about EC80)
CONDITION_DETAILS: geometric mean, hGIP at estimated EC80, examples marked ^2: overall geometric mean of multiple forms (including salts) tested
MEASURED_ATTRIBUTE: IC50 (nM)

[1] CC(C)c1ccc(NC(=O)N2CCC[C@@H]2C(=O)Nc2ccc(-c3cccc(C(=O)O)c3)cn2)cc1 [Example 77]
[2] CC(C)c1ccc(NC(=O)N2CCC[C@@H]2C(=O)Nc2ccc(-c3cccc(C(=O)O)n3)c(F)c2)cc1 [Example 75]
[3] CC(C)c1ccc(NC(=O)N2CCC[C@@H]2C(=O)Nc2ccc(-c3cc(F)c(O)cc3F)cc2)cc1 [Example 47]
Asked: Please put the 3 molecules above in a list ordered by falling IC50. Give me the labels in the order the question wants.
Given back: 2, 3, 1
(2: 140 nM, 3: 47 nM, 1: 16 nM)

----------
TARGET: human Glucose-dependent Insulinotropic Polypeptide Receptor (hGIPR) (Homo sapiens, UniProt P48546)
TEST: Functional in vitro GIPR antagonist potency assay (cAMP HTRF, CHO-K1 cells stably expressing hGIPR, hGIP stimulation at about EC80)
CONDITION_DETAILS: geometric mean, hGIP at estimated EC80, examples marked ^2: overall geometric mean of multiple forms (including salts) tested
pIC50: −log10 of the molar value. Counter-ions that a name gives are not always drawn.
MEASURED_ATTRIBUTE: pIC50

Consider the following illustrative entries.
1) Cc1cc(NC(=O)N2CCC[C@@H]2C(=O)Nc2ccc3c(n2)CC[C@@H](C(=O)O)C3)ccc1C(F)(F)F (single isomer, unassigned) [Example 226]
7.09
2) O=C(O)c1ccc(-c2ccc(NC(=O)[C@H]3CCCN3C(=O)Nc3ccc(C4CC4)c(C(F)(F)F)c3)cc2)cc1
8.68
3) Cc1cc(C(=O)O)c(F)cc1-c1ccc(NC(=O)[C@H]2CCCN2C(=O)Nc2ccc(C(C)C)cc2)cc1
7.72
4) COc1cc(-c2ccc(NC(=O)[C@H]3CCCN3C(=O)Nc3ccc(C(C)C)c(C)c3)cc2)ccc1C(=O)O
8.24
5) O=C(O)c1ccc(-c2ccc(NC(=O)[C@H]3CCCN3C(=O)Nc3ccc(C4CCC4)cc3)cc2)cc1
8.57
6) CC(C)c1ccc(NC(=O)N2CCC[C@@H]2C(=O)Nc2ccc(-c3c(F)ccc(C(=O)O)c3F)cc2)cc1
6.40
7) O=C(O)c1cccc(-c2ccc(NC(=O)[C@H]3CCCN3C(=O)Nc3ccc(C4CCC4)cc3)nc2)c1
7.77
8) Cc1cc(NC(=O)[C@H]2CCCN2C(=O)Nc2ccc(C(C)C)cc2)cc2ccc(C(=O)O)nc12 [Example 11, trifluoroacetate salt]
6.74
9) O=C(O)c1ccc(-c2ccc(NC(=O)[C@H]3CCCN3C(=O)Nc3ccc(C4CCC4)cc3)nc2)cc1
8.03
10) COc1cc(C(=O)O)cc(C)c1-c1ccc(NC(=O)[C@H]2CCCN2C(=O)Nc2ccc(C(C)C)cc2)cc1
7.06

[P] O=C(O)c1ccc(-c2ccc(NC(=O)[C@H]3CCCN3C(=O)Nc3ccc(C4CCCC4)cc3)cc2)cc1
[Q] CC(C)c1ccc(NC(=O)N2CCC[C@@H]2C(=O)Nc2ccc3cc(C(=O)O)ccc3c2)cc1 (racemic) [Example 41]
Asked: Quick check, higher pIC50 between P and Q ? // output: label of the selected item
Given back: P

[a] Cc1cc(NC(=O)[C@H]2CCCN2C(=O)Nc2ccc(C3CCC3)cc2)cnc1-c1ccc(C(=O)O)cc1
[b] CC(C)c1ccc(NC(=O)N2CCC[C@@H]2C(=O)Nc2ccc(-c3cc(C(=O)O)c(F)cc3F)cc2)cc1
Asked: Identify the entry with the smaller pIC50: a or b . // output: label of the selected item
Given back: b

[A] CC(C)c1ccc(NC(=O)N2CCC[C@@H]2C(=O)Nc2ccc(-c3ccc(C(=O)O)c(F)c3)cn2)cc1
[B] Cc1cc(C(=O)O)ccc1-c1ccc(NC(=O)[C@H]2CCCN2C(=O)Nc2ccc(C(C)C)c(F)c2)nc1
Asked: Identify the entry with the smaller pIC50: A or B . // output: label of the selected item
Given back: A
(A: 7.15, B: 7.96)

[P] Cc1cc(-c2ccc(NC(=O)[C@H]3CCCN3C(=O)Nc3ccc(C(C)C)cc3)cc2)cc(F)c1C(=O)O
[Q] CC(C)c1ccc(NC(=O)N2CCC[C@@H]2C(=O)Nc2ccc(-c3ccc(C(=O)O)cc3)cc2)cn1
Asked: Quick check, higher pIC50 between P and Q ? // output: label of the selected item
Given back: P
(P: 7.33, Q: 6.96)

[1] Cc1cc(NC(=O)N2CCC[C@@H]2C(=O)Nc2ccc(-c3ccc(C(=O)O)c(F)c3)cn2)ccc1C(C)C
[2] O=C(O)c1ccc(-c2ccc(NC(=O)[C@H]3CCCN3C(=O)NCc3ccc(C(F)(F)F)cc3Cl)cc2)cc1
Asked: Identify the entry with the smaller pIC50: 1 or 2 . // output: label of the selected item
Given back: 2

Numbers sourced from patent US20240366598A1.
